Biological target: Delta-type opioid receptor (Rattus norvegicus, UniProt P33533)
Sequence (P33533 whole entry): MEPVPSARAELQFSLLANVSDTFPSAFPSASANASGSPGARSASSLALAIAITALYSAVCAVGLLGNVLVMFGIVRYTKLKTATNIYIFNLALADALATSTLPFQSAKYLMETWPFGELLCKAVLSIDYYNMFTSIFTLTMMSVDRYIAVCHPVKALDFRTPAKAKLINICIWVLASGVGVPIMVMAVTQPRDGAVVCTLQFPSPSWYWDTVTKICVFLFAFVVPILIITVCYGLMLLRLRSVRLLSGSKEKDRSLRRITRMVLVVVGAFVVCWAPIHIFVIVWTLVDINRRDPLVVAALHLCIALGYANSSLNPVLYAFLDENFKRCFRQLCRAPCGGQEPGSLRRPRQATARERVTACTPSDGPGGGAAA
Assay: Binding affinity towards Opioid receptor delta 1 using [3H]- [p-CIPhe4] DPDPE as radioligand
In this section we review reported pIC50 values for a set of compounds.
Just the number, please; pIC50 means minus log10 of the concentration in mol/L.

q: Identify measured pIC50 obtained with Delta-type opioid receptor (Rattus norvegicus, UniProt P33533) for Cc1cc(O)cc(C)c1[C@H](C)[C@H](N)C(=O)N[C@H]1C(=O)NCC(=O)N[C@@H](Cc2ccccc2)C(=O)N[C@@H](C(=O)O)C(C)(C)SSC1(C)C .
a: 6.68

Now consider a different compound.
q: Identify measured pIC50 obtained with Delta-type opioid receptor (Rattus norvegicus, UniProt P33533) for Cc1cc(O)cc(C)c1[C@@H](C)[C@@H](N)C(=O)N[C@H]1C(=O)NCC(=O)N[C@@H](Cc2ccccc2)C(=O)N[C@@H](C(=O)O)C(C)(C)SSC1(C)C .
a: 5.46
